Molecular target: human skin chymase (Homo sapiens, UniProt P23946)
Construct: using human skin chymase (Cortex Biochem); purchased Cortex Biochem
Sequence (P23946 22-247): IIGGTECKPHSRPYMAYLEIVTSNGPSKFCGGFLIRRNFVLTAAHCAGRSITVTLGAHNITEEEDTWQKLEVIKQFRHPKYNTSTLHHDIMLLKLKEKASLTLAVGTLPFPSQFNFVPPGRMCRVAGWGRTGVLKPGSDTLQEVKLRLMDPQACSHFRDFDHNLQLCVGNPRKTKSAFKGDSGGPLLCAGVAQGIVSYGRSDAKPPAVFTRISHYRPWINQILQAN
Test: Enzyme-catalyzed hydrolysis assay (chymase inhibition)
Assay type: biochemical
Conditions: 10 nM enzyme, 0.7 mM Suc-Ala-Ala-Pro-Phe-pNa, pH 8.0, 37° C., 30 minutes
measured_metric: IC50 (µM)

Cn1cc(C(C(=O)Nc2ccc3ccccc3c2)P(=O)(O)O)c2cc(C(=O)O)ccc21 (centres unmarked): 0.606

1 = CP(=O)(O)C(C(=O)N/C=C/c1cc(F)c(F)c(F)c1)c1csc2ccc(Cl)cc12 (centres unmarked)
2 = O=C(Nc1ccc2ccccc2c1)C(c1csc2ccc(Cl)cc12)S(=O)(=O)O (centres unmarked)
3 = O=C(Nc1cc2ccccc2cc1OCc1ccccc1)C(c1cccc2ccccc12)P(=O)(O)O (centres unmarked)
4 = O=C(Nc1ccc2ccccc2c1)C(c1csc2cc(Br)ccc12)P(=O)(O)O (centres unmarked)
**Q:** Could you please sort these 4 entries by IC50 from high to low? # format: label list in the order the request specifies
**A:** 3, 4, 2, 1
